tested on: C2C12 + WNT3A conditioned medium, alkaline phosphatase; experiment: alkaline phosphatase induction in C2C12 cells, dose response, cell-based, WNT3A-conditioned medium (AID 1117327)
Calls of active or inactive are those of the source. No rule for the calls is given here.
Please reply with one of these outcomes: active, inactive

Please review the entries below; each comes with its answer.
{"Molecule": "Oc1c(I)cc(Cl)c2cccnc12", "Answer label": "inactive"}
{"Molecule": "C[C@@]12C(=O)OC(=O)[C@]1(C)C1CCC2O1", "Answer label": "active"}
{"Molecule": "CC[C@]1(O)C[C@H]2CN(CCc3c([nH]c4ccccc34)[C@@](C(=O)OC)(c3cc4c(cc3OC)N(C=O)[C@H]3[C@@](O)(C(=O)OC)[C@H](OC(C)=O)[C@]5(CC)C=CCN6CC[C@]43[C@@H]65)C2)C1", "Answer label": "active"}
{"Molecule": "COc1cc(NCc2ccc3nc(N)nc(N)c3c2C)cc(OC)c1OC", "Answer label": "inactive"}
{"Molecule": "Cc1nc(Nc2ncc(C(=O)Nc3c(C)cccc3Cl)s2)cc(N2CCN(CCO)CC2)n1", "Answer label": "active"}
{"Molecule": "CN(Cc1cnc2nc(N)nc(N)c2n1)c1ccc(C(=O)N[C@@H](CCC(=O)O)C(=O)O)cc1", "Answer label": "active"}
{"Molecule": "COC(=O)[C@H]1[C@H]2C[C@@H]3c4[nH]c5cc(OC)ccc5c4CCN3C[C@H]2C[C@@H](OC(=O)/C=C/c2ccc(O)c(OC)c2)[C@@H]1OC", "Answer label": "inactive"}
{"Molecule": "O=[N+]([O-])C(Br)(CO)CO", "Answer label": "inactive"}
{"Molecule": "COc1cccc2c1C(=O)c1c(O)c3c(c(O)c1C2=O)C[C@@](O)(C(=O)CO)CC3OC1CC(N2CCOC(OC)C2)C(O)C(C)O1 (some centres undefined)", "Answer label": "inactive"}
{"Molecule": "Cc1cc(O)c2ccccc2c1O", "Answer label": "active"}

[in] Identify the outcome logged in this assay for the molecule shown: `C=CC(=O)Nc1cc2c(Nc3ccc(F)c(Cl)c3)ncnc2cc1OCCCN1CCOCC1`
[out] inactive

[in] Hi team, can someone confirm the assay call for CCCCC1C(=O)N(c2ccccc2)N(c2ccc(O)cc2)C1=O (centres undefined) ?
[out] active

[in] Entry `Nc1ccc2cc3ccc(N)cc3nc2c1` : call = ?
[out] inactive

[in] Each molecule tested received a call. Report the one for `CC(=O)Oc1ccc(C2(c3ccc(OC(C)=O)cc3)Oc3ccccc3NC2=O)cc1` .
[out] inactive

[in] In this assay, the call recorded for `Cc1ccc2c(Br)cc(Br)c(O)c2n1` was what?
[out] inactive

[in] How did this test come out for `CN(C)c1ccc(C(=C2C=CC(=[N+](C)C)C=C2)c2ccccc2)cc1` ?
[out] active

[in] For this molecule, state the assay outcome: `CCC1=C[C@@H]2CN(C1)Cc1c([nH]c3ccccc13)[C@@](C(=O)OC)(c1cc3c(cc1OC)N(C)[C@H]1[C@@](O)(C(=O)OC)[C@H](OC(C)=O)[C@]4(CC)C=CCN5CC[C@]31[C@@H]54)C2`
[out] active

[in] Called result for `COc1cc([C@@H]2c3cc4c(cc3[C@H](O)[C@H]3COC(=O)[C@H]23)OCO4)cc(OC)c1OC`
[out] active

[in] Fill in: this test's call for `Cc1ccc([N+](=O)[O-])[c]2c1[O][Hg]2` is ___
[out] active

[in] For this molecule, state the assay outcome: `CC[C@@]1(O)C(=O)OCc2c1cc1n(c2=O)Cc2c-1nc1ccccc1c2/C=N/OC(C)(C)C`
[out] active

The reported numbers originate from PubChem BioAssay AID1117327.
